# SYSTEM_NAME: TNKS1 (Homo sapiens)
# Sequence (O95271 1-1327): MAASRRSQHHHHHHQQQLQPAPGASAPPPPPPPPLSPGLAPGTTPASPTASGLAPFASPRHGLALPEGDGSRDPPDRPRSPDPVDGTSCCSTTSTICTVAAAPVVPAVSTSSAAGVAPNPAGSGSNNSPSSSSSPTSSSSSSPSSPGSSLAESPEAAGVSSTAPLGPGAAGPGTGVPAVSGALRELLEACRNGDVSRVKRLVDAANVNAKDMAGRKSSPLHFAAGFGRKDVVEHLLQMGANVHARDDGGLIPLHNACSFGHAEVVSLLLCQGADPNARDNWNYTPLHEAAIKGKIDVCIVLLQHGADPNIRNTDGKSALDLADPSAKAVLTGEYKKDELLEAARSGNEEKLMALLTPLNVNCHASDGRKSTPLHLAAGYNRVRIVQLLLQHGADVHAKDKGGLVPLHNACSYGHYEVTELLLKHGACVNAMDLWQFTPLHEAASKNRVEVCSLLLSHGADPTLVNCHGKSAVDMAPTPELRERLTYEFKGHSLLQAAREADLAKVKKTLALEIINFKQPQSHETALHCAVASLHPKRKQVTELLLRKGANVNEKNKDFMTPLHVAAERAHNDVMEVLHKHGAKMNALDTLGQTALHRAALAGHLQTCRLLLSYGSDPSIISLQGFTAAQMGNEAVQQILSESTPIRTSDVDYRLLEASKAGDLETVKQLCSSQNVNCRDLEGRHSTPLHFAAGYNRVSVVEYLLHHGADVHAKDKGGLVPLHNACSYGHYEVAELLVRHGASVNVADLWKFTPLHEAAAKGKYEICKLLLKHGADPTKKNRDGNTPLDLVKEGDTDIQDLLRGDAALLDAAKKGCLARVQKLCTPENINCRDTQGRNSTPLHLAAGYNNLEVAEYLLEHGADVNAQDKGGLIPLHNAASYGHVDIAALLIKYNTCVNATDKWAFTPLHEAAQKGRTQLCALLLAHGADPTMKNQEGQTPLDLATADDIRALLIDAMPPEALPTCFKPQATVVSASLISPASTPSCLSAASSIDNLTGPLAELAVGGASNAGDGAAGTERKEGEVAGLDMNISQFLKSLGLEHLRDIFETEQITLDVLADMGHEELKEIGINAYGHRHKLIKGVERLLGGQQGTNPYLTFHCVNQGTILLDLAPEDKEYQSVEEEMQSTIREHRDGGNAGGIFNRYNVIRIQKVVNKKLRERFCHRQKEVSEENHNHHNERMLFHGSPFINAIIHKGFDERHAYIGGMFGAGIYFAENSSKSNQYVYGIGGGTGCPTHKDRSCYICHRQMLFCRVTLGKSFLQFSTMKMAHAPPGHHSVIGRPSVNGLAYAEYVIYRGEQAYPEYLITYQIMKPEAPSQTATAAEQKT
# PROTOCOL: Modified TNKS1 Assay 2 (auto-parsylation, [3H]-NAD+ SPA)
# Format: biochemical
# TEST_SETTINGS: 6 nM TNKS1, 96 well
Please use yes for IC50 under 2 µM and no for everything else, ties included.

Previously resolved entries follow.
COMPOUND	LABEL
CNC(=O)c1nc[nH]c1C(=O)Nc1ccc(NC(=O)c2c(Cl)cccc2Cl)cc1	yes
O=C(Nc1ccc(NC(=O)c2[nH]cnc2C(=O)NCCC2CCCC2)cc1)c1cc(F)c(F)cc1Cl	no
O=C(NCCN1CCCCC1)c1nc[nH]c1C(=O)Nc1ccc(NC(=O)c2c(F)cc(F)cc2Cl)cc1	yes

Decide: IC50 of CNC(=O)c1nc[nH]c1C(=O)Nc1ccc(NC(=O)c2ccc(O)cc2Cl)cc1 strictly below 2 µM? yes

Lab note: confirm whether the reported IC50 for this compound is below 2 µM, equality not counting. compound: CC1CCCN(CCNC(=O)c2[nH]cnc2C(=O)Nc2ccc(NC(=O)c3ccc(F)cc3Cl)cc2)C1 (stereo not shown) yes

Below 2 µM on IC50? Entry O=C(Nc1ccc(NC(=O)c2[nH]cnc2C(=O)N2CCOCC2)cc1)c1ccc(F)cc1Cl no

Say whether its IC50 is strictly beneath 2 µM. Entry: CNC(=O)c1nc[nH]c1C(=O)Nc1ccc(NC(=O)c2c(F)cc(F)cc2F)cc1 yes
